- test.target: Acetylcholinesterase human (AChE) (Homo sapiens, UniProt P22303)
- Construct: purchased Sigma-Aldrich (Poznań, Poland)
- Sequence (P22303 32-614): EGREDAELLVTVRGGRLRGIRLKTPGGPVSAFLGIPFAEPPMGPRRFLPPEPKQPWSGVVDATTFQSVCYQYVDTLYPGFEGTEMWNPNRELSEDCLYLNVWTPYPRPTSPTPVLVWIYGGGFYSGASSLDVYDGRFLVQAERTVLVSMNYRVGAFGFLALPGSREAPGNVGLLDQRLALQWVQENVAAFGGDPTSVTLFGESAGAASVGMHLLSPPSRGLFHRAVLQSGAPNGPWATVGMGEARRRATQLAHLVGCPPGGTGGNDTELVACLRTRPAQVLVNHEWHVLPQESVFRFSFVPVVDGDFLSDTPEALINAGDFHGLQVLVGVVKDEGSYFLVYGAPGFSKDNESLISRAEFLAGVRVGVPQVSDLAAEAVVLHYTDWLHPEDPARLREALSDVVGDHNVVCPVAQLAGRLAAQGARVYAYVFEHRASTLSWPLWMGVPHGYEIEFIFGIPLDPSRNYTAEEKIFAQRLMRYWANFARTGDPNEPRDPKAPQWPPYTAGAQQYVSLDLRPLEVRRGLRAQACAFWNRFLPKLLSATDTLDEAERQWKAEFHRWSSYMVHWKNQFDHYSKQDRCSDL
- assay.method.text: AChE inhibition kinetics, Ellman's method combined with capillary electrophoresis
- Format: biochemical
- details: inhibitor 0.08 mM; acetylthiocholine 5.75 mM
- Description: In this work, we used the combined Ellman’s method with the capillary electrophoresis method developed by us for the determination of 4,4-dithio-bis-acid nitrobenzoic (DBAN) (main enzyme reaction product) in the presence of acetylthiocholine (ACth), 5-thio-2-nitrobenzoic acid (NTB), 5,5′-dithio-bis-2-nitrobenzoic acid (DTNB), acetylcholinesterase (AChE) and inhibitors (I), (II), (III) and (IV) of acetylcholinesterase. […]
Measured Peak area of product (4,4-dithio-bis-acid nitrobenzoic), mean, listed per entry.

Endpoint output: Peak area of product (4,4-dithio-bis-acid nitrobenzoic), mean of CCC12C(=O)C(CC)(C(c3ccccc3)=C1c1ccccc1)C1C(=O)N(CC(O)CN(C)C)C(=O)C12 (stereo not shown) [Compound (II)] . Value?
233453

Endpoint output: Peak area of product (4,4-dithio-bis-acid nitrobenzoic), mean of CCC12C(=O)C(CC)(C(c3ccccc3)=C1c1ccccc1)C1C(=O)N(CC(O)CNC(C)C)C(=O)C12 (stereo not shown) [Compound (I)] . Value?
207149

Endpoint output: Peak area of product (4,4-dithio-bis-acid nitrobenzoic), mean of CN(C)CC(O)CN1C(=O)C2C(C1=O)C1(C)C(=O)C2(C)C(c2ccccc2)=C1c1ccccc1 (stereo not shown) [Compound (IV)] . Value?
190708

Endpoint output: Peak area of product (4,4-dithio-bis-acid nitrobenzoic), mean of CC(C)NCC(O)CN1C(=O)C2C(C1=O)C1(C)C(=O)C2(C)C(c2ccccc2)=C1c1ccccc1 (stereo not shown) [Compound (III)] . Value?
164404
